# credit: the supplement of paper PMC12592484

# Test system: CAF#4 (primary prostate cancer-associated fibroblasts of iCAF-like type)
# protocol-text: drug sensitivity score (DSS2, normalised partial AUC of dose-response, 72 h CellTiter-Glo viability) (DSS (dimensionless)); higher = more sensitive (stronger growth inhibition / cytotoxicity); extreme values may be limits of the assay
Binary call on drug sensitivity score: class 1 from 0.6 upward, class 0 beneath that.

molecule | system-name | class-name
COc1ccc(CCc2nc3cc(-c4c(C)noc4C)ccc3n2C[C@H](C)N2CCOCC2)cc1Cl [SGC-CBP30] (tested concentration range 2.5-25000 nM) | CAF#4 | class 1
CN(C)C(=N)NC(=N)N [Metformin] (tested concentration range 10-100000 nM) | CAF#4 | class 0
CN1CC[C@H](c2c(O)cc(O)c3c(=O)cc(-c4ccccc4Cl)oc23)[C@H](O)C1 [Alvocidib] (tested concentration range 1-10000 nM) | CAF#4 | class 1
Nc1cc(F)ccc1NC(=O)c1ccc(CNC(=O)/C=C/c2cccnc2)cc1 [Tucidinostat] (tested concentration range 1-10000 nM) | CAF#4 | class 1
Cc1cc(Nc2ncnc3ccc(NC4=NC(C)(C)CO4)cc23)ccc1Oc1ccn2ncnc2c1 [Tucatinib] (tested concentration range 0.2-2500 nM) | CAF#4 | class 0
